Hello, the source for this data is patent US20250163167A1, in case you need it.

Can you tell me Abs 630 (25 nM) for the items I'm about to list?
testedSystem: T1, human IL-10 receptor (hIL-10R alpha and beta chains) on HEK-Blue IL-10 reporter cells (human, UniProt Q13651 22-578; Q08334 20-325)
T1 sequence 1: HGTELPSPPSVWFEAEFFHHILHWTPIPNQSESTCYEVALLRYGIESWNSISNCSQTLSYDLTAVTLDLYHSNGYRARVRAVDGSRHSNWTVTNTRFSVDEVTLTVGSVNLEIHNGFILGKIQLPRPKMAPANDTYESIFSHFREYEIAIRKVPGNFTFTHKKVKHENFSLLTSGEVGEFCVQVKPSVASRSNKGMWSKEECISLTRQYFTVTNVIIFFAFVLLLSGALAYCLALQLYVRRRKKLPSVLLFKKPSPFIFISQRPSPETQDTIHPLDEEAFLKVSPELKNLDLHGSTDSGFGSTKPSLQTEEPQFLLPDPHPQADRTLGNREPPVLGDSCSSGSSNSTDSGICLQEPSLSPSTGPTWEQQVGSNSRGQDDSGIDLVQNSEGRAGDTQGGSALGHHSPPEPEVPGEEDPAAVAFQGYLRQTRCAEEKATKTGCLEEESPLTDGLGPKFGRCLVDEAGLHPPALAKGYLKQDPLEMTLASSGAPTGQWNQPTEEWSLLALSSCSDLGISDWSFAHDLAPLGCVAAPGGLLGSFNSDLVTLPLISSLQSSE
T1 sequence 2: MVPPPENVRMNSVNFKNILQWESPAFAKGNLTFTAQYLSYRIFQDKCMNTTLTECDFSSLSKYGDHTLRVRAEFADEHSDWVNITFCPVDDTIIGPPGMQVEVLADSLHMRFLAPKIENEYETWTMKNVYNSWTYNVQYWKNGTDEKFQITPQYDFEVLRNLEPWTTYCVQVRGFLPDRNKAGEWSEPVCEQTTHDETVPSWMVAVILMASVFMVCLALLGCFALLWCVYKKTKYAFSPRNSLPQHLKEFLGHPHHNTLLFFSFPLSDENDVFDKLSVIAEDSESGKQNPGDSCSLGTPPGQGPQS
assayProcedure: cell-based or functional assay
Give the quantity in Abs 630, number only.

I have this binder here, IL10R binding molecule of SEQ ID NO: 258 (bispecific antibody) QVQLQESGGGSVQAGGSLRLSCAASRYLYSIDYMAWFRQSPGKEREPVAVIYTASGATFYPDSVKGRFTISQDNAKMTVYLQMNSLKSEDTAMYYCAAVRKTDSYLFDAQSFTYWGQGTQVTVSSGGGSQVQLQESGGGSVQAGGSLRLSCAASRYTYNSYCMGWFRQAPGKEREGVATIDSDGMTRYADSVKGRFTISKDNAKNTLYLQMNSLKPEDTAMYYCAADADCTIAAMTTNPLGQGTQVTVSSASHHHHHH , and I need its recorded Abs 630 (25 nM).
0.49

Same question for IL10R binding molecule of SEQ ID NO: 287 (bispecific antibody) QVQLQESGGGSVQAGGSLRLSCTVSGYTYSSNCMGWFRQAPGKEREGVATIYTGGGNTYYADSVKGRFTISQDNAKNTVYLQMNNLKPEDTAMYYCAAEPLSRVYGGSCPTPTFDYWGQGTQVTVSSGGGSQVQLQESGGGSVQAGGSLRLSCTVSRYTASVNYMGWFRQAPGKEREGVATIFTGAGTTYYANSVKGRFTISRDNAKNTAYLQMNSLKPEDTAIYYCAVDFRGGLLYRPAYEYTYRGQGTQVTVSSASHHHHHH please.
0.9
